molecular target: UniProt:Q14416; assay: [35S]GTPγS binding assay (Affinity to mGluR2); type: biochemical; conditions: cell membrane fraction of HEK293 cells stably expressing human mGluR2; glutamic acid 10 μM
pIC50: −log10 of the molar value.
recorded_endpoint: pIC50

These solved cases illustrate the format of a correct answer.
Cc1cc(-c2nc(-c3ccc(Cl)c(Cl)c3)n3c2CCO[C@H](C)C3)ccn1 [Example 66] ... 7.90
Cc1cc(-c2nc(-c3cccc(Cl)c3)n3c2CCO[C@H](C)C3)ccn1 [Example 63] ... 7.10
Cc1cc(-c2nc(-c3ccc(F)c(OCC4CC4)c3)n3c2CCO[C@H](C)C3)cc(C)n1 [Example 6] ... 7.89
Cc1cc(-c2nc(-c3ccc(Cl)c(C(F)F)c3)n3c2CCOCC3)ccn1 [Example 126] ... 8.08
COc1cc(-c2nc(-c3cc(C)nc(C)c3)c3n2CCOCC3)ccc1C(F)(F)F [Example 122] ... 7.66

(A) COc1cc(-c2nc(-c3cc(C)nc(CF)c3)c3n2C[C@@H](CF)OCC3)ccc1Cl [Example 91]
(B) Cc1cc(-c2nc(-c3ccc(F)c(OCC(F)(F)F)c3)n3c2CCOCC3)cc(C)n1 [Example 93]
Ask | Thinking about recorded pIC50 values, which is higher, A or B ? Response format: the label of the selected entry.
Reply | A
(A: 7.79, B: 7.54)

----------
molecular target: human mGluR2 (Homo sapiens (Human), UniProt Q14416); experiment: [35S]GTPγS binding assay (Affinity to mGluR2); format: biochemical; settings: cell membrane fraction of HEK293 cells stably expressing human mGluR2; glutamic acid 10 μM; inhibition of specific [35S]GTPγS binding
Sequence (Q14416 19-872): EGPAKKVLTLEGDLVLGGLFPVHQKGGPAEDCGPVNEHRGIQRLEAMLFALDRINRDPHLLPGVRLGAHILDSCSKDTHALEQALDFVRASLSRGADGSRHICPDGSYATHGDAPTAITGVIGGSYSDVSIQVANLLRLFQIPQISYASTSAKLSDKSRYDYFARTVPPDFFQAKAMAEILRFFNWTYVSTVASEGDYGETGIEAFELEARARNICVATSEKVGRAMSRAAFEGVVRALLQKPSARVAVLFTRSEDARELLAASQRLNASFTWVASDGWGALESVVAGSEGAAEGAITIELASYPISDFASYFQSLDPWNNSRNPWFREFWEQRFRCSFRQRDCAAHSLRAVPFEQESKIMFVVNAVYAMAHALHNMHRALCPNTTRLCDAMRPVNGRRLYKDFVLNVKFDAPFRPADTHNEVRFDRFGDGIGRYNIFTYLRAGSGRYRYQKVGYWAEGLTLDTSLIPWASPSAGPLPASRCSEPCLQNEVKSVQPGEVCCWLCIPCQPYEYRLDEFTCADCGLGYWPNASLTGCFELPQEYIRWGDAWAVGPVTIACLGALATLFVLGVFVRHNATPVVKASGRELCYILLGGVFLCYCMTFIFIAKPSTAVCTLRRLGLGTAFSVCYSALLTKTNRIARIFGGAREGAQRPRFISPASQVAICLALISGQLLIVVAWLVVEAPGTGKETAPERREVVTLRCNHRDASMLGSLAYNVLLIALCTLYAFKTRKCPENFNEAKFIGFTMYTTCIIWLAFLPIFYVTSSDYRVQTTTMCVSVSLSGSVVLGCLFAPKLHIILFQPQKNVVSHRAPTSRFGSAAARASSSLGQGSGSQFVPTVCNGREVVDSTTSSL
recorded_endpoint: IC50 (nM)

These solved cases illustrate the format of a correct answer.
Cc1cc(-c2nc(-c3ccc(F)c(C(F)(F)F)c3)n3c2CCO[C@H](CF)C3)ccn1 [Example 174] ... 24.3
Cc1cc(-c2nc(-c3ccc(F)c(OC(F)F)c3)n3c2CCO[C@H](C)C3)ccn1 [Example 185] ... 19.5

(I) COc1ccc(-c2nc(-c3cc(C)nc(C(F)F)c3)c3n2C[C@@H](C)OCC3)cc1C [Example 178]
(II) Cc1cc(-c2nc(-c3ccc(F)c(Cl)c3)n3c2CCO[C@H](CF)C3)cc(C)n1 [Example 171]
Ask | I'm curious, which of these has a smaller IC50 number: I or II ? Response format: the label of the selected entry.
Reply | I
(I: 17.8 nM, II: 26.7 nM)

----------
molecular target: human mGluR2 (Homo sapiens (Human)); assay: [35S]GTPγS binding assay (Affinity to mGluR2); format: biochemical; conditions: cell membrane fraction of HEK293 cells stably expressing human mGluR2; glutamic acid 10 μM
pIC50: −log10 of the molar value.
recorded_endpoint: pIC50

Cc1cc(-c2nc(-c3ccc(Cl)c(C)c3)n3c2CCO[C@H](CF)C3)ccn1 [Example 74] ... 7.45
Cc1cc(-c2nc(-c3ccc(OC(F)F)c(C)c3)n3c2CCO[C@H](CF)C3)ccn1 [Example 40] ... 8.33
Cc1cc(-c2nc(-c3ccc(F)c(OCC4CC4)c3)n3c2CCOCC3)cc(C)n1 [Example 94] ... 7.46
Cc1cc(-c2nc(-c3ccc(OC(C)C)c(Cl)c3)n3c2CCO[C@H](CF)C3)cc(C)n1 [Example 38] ... 8.27
Cc1cc(-c2nc(-c3ccc(Cl)c(F)c3)n3c2CCO[C@H](C)C3)cc(CF)n1 [Example 87] ... 7.66

(I) COc1cc(-c2nc(-c3ccnc(C)c3)c3n2C[C@@H](C)OCC3)ccc1C [Example 55]
(II) Cc1cc(-c2nc(-c3ccnc(F)c3)c3n2CCOCC3)ccc1OC(F)(F)F [Example 115]
(III) COc1cc(-c2nc(-c3ccnc(C)c3)c3n2C[C@@H](CF)OCC3)ccc1C(F)(F)F [Example 41]
Ask | Hey, quick one: sort these by pIC50, low to high? List the labels according to the requested ordering.
Reply | II, I, III

(1) COc1cc(-c2nc(-c3cc(C)nc(C(F)F)c3)c3n2C[C@@H](C)OCC3)ccc1C [Example 80]
(2) COc1cc(-c2nc(-c3cc(C)nc(C)c3)c3n2CCOCC3)ccc1OC(F)(F)F [Example 117]
(3) Cc1cc(-c2nc(-c3ccc(OC(F)F)c(C)c3)n3c2CCO[C@H](CF)C3)cc(C)n1 [Example 27]
(4) Cc1cc(-c2nc(-c3cccc(Cl)c3)n3c2CCO[C@H](C)C3)cc(C)n1 [Example 62]
Ask | Hey, quick one: sort these by pIC50, low to high? List the labels according to the requested ordering.
Reply | 4, 2, 1, 3

----------
biological target: human mGluR2 (Homo sapiens (Human), UniProt Q14416); assay: [35S]GTPγS binding assay (Affinity to mGluR2); format: biochemical; conditions: cell membrane fraction of HEK293 cells stably expressing human mGluR2; glutamic acid 10 μM
pIC50: −log10 of the molar value.
recorded_endpoint: pIC50

These solved cases illustrate the format of a correct answer.
COc1ccc(-c2nc(-c3cc(C)nc(C)c3)c3n2C[C@@H](CF)OCC3)cc1Cl ... 8.00
Cc1cc(-c2nc(-c3ccc(Cl)c(C(F)(F)F)c3)n3c2CCOCC3)cc(C)n1 ... 7.72
Cc1cc(-c2nc(-c3ccc(Cl)c(Cl)c3)n3c2CCO[C@H](C)C3)cc(CF)n1 ... 7.88
Cc1cc(-c2nc(-c3ccc(Cl)c(C(F)F)c3)n3c2CCOCC3)cc(C)n1 ... 7.78

(a) COc1cc(-c2nc(-c3cc(C)nc(C)c3)c3n2C[C@@H](CF)OCC3)ccc1C(F)F
(b) C[C@@H]1Cn2c(-c3ccc(OC(F)(F)F)cc3)nc(-c3ccnc(CF)c3)c2CCO1
Ask | I'm curious, which of these has a smaller pIC50 number: a or b ? Response format: the label of the selected entry.
Reply | b

----------
biological target: UniProt:Q14416; experiment: [35S]GTPγS binding assay (Affinity to mGluR2); format: biochemical; conditions: cell membrane fraction of HEK293 cells stably expressing human mGluR2; glutamic acid 10 μM
recorded_endpoint: IC50 (nM)

Cc1cc(-c2nc(-c3ccc(Cl)c(Cl)c3)n3c2CCO[C@H](CF)C3)cc(C)n1 ... 20.9

(1) COc1cc(-c2nc(-c3cc(C)nc(CF)c3)c3n2C[C@@H](C)OCC3)ccc1OC(F)(F)F
(2) CCc1ccc(-c2nc(-c3ccnc(C)c3)c3n2C[C@@H](C)OCC3)cc1OC
(3) Cc1cc(-c2nc(-c3ccc(C(F)(F)F)c(F)c3)n3c2CCO[C@H](C)C3)cc(C)n1
Ask | Parameters: sort_field (IC50), sort_dir (desc). List the labels according to the requested ordering.
Reply | 3, 2, 1
(3: 27.8 nM, 2: 7.6 nM, 1: 5.2 nM)

Numbers sourced from patent US9458176B2.
